target: human full-length MKNK1 (Homo sapiens, UniProt Q9BUB5, T385D); construct: GST (N); purchased Carna Biosciences 02-145; host or cells: insect cells (baculovirus expression system); test: MKNK1 kinase high ATP assay (TR-FRET); assay type: biochemical; conditions: Table 1; MKNK1 kinase high ATP assay, 2 mM ATP; read-out: MKNK1 IC50
Sequence (Q9BUB5 1-424 isoform Q9BUB5-2 T344D): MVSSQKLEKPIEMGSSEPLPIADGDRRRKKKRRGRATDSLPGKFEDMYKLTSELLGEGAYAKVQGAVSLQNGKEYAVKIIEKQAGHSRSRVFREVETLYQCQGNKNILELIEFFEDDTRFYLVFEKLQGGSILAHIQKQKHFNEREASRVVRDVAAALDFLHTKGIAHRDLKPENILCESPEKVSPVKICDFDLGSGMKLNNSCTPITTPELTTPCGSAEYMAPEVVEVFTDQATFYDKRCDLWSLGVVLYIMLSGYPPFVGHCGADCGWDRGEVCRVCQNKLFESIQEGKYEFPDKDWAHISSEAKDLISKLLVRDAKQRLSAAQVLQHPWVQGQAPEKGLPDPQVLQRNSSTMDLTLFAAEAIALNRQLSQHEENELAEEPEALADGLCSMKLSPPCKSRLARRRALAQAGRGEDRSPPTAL
I'd appreciate it if you marked entries 1.0 when IC50 is lower than 2 nM and 0.0 when it is not.

MOLECULE	TGT	LABEL_CLASS
COc1cc2[nH]ncc2cc1Nc1ncnc2sc3c(c12)CC[C@@H](C(=O)N(C)C(C)C)C3 [Example 27]	human full-length MKNK1 (Homo sapiens, UniProt Q9BUB5, T385D)	0.0
COc1cc2[nH]ncc2cc1Nc1ncnc2sc3c(c12)CC[C@H](C(=O)N(C)CCn1ccnc1)C3 [Example 171]	human full-length MKNK1 (Homo sapiens, UniProt Q9BUB5, T385D)	1.0
CCOc1cc2[nH]ncc2cc1Nc1ncnc2sc3c(c12)CC[C@H](C(=O)N1CC(N(C)C)C1)C3 [Example 218]	human full-length MKNK1 (Homo sapiens, UniProt Q9BUB5, T385D)	1.0
CSc1cc2[nH]ncc2cc1Nc1ncnc2sc3c(c12)CC[C@H](C(=O)N(C)CCC(F)(F)F)C3 [Example 249]	human full-length MKNK1 (Homo sapiens, UniProt Q9BUB5, T385D)	0.0
CCOc1cc2[nH]ncc2cc1Nc1ncnc2sc3c(c12)CC[C@H](C(=O)N(C)CC(C)(C)O)C3 [Example 74]	human full-length MKNK1 (Homo sapiens, UniProt Q9BUB5, T385D)	1.0
O=C([C@H]1CCc2c(sc3ncnc(Nc4ccc5[nH]ncc5c4)c23)C1)N1CC2(COC2)C1 [Example 12]	human full-length MKNK1 (Homo sapiens, UniProt Q9BUB5, T385D)	0.0
CN(C)C(=O)[C@H]1CCc2c(sc3ncnc(Nc4cc5cn[nH]c5cc4OC(F)(F)F)c23)C1 [Example 191]	human full-length MKNK1 (Homo sapiens, UniProt Q9BUB5, T385D)	1.0
CN(C)C(=O)[C@H]1CCc2c(sc3ncnc(Nc4cc5cn[nH]c5cc4OCCCN=[N+]=[N-])c23)C1 [Example 110]	human full-length MKNK1 (Homo sapiens, UniProt Q9BUB5, T385D)	0.0
